This listing pairs compounds with measured IC50.
- Test system: Target C
- assay.notes: RT-qPCR splicing assay panel, Target C canonical junction (CJ) mRNA
- Type: cell-based, human
- experimental.context: Homo sapiens; Table 5 panel; canonical junction qPCR; compound concentration having 50% response in CJ decrease; read-out: Target C IC50 (decrease in CJ mRNA levels)
Structures can show the parent of a compound that is named as a salt.
measure.name: IC50

compound | assay.result
Cc1cn2nc(-c3cc(N)c4c(=O)n([C@@H]5CCNC5)ccc4c3)cc(C)c2n1 | > 10000 nM
CC[C@@H]1C[C@H](n2ncc3cc(-c4cc(C)c5nc(C)cn5n4)ccc3c2=O)CCN1 | 1000 to 10000 nM
Cc1cn2cc(-c3cc(F)c4c(=O)n(C5CCNCC5)cnc4c3)cc(C#N)c2n1 | 100 to 1000 nM
Cc1cn2cc(-c3cc(F)c4c(=O)n([C@H]5CC[C@@H](N(C)C)CC5)ccc4c3)cc(F)c2n1 | 100 to 1000 nM
CCN1CCC(N2CCc3cc(-c4cc(C)c5nc(C)cn5n4)ccc3C2=O)CC1 | > 10000 nM
Cc1cn2cc(-c3cc(F)c4c(=O)n(C5CCOC5)cnc4c3)cc(C#N)c2n1 (stereo in doubt) | 100 to 1000 nM
Cc1cn2cc(-c3cc(O)c4c(=O)n(C5CCNC6(CC6)C5)ncc4c3)cc(Cl)c2n1 (centres unmarked) | 1000 to 10000 nM
CN1C2C=C(c3ccc4c(=O)n(-c5ccc6nn(C)cc6c5)cnc4c3)CC1CC2 (centres unmarked) | > 10000 nM
Cc1cn2cc(-c3cc(F)c4c(=O)n([C@H]5CCNC[C@@H]5F)cnc4c3)cc(F)c2n1 (relative stereo) | 1000 to 10000 nM
Cc1cn2nc(-c3ccc4c(=O)n(C5CCNCC5)ncc4c3)cc(C)c2n1 | 100 to 1000 nM
COc1cccc(Oc2cc(-c3ccc4c(=O)n(C5CCNCC5)ccc4c3)nn3cc(C)nc23)c1 | < 100 nM
Cc1cn2nc(-c3ccc4c(=O)n([C@@H]5CCN[C@H](C)C5)ncc4c3)cc(C)c2n1 | 100 to 1000 nM
Cc1cn2nc(-c3ccc4c(=O)n(C5CCNCC5)cnc4c3)cc2c(C)n1 | 1000 to 10000 nM
CNc1cc(-c2cc(C)c3nc(C)cn3n2)cc2ccn([C@H]3CCNC3)c(=O)c12 | > 10000 nM
Cc1cn2nc(-c3ccc4c(=O)n([C@H]5CCNC6(CC6)C5)ccc4c3)cc(C)c2n1 | < 100 nM
Cc1cn2nc(-c3cc(F)c4c(=O)n(C5CCNC5)ccc4c3)cc(C)c2n1 (stereo in doubt) | > 10000 nM
Cc1cc(-c2ccc3c(=O)n(C4CCNC5(CC5)C4)ncc3c2)cc2cn(C)nc12 (centres unmarked) | 1000 to 10000 nM
Cc1cn2nc(-c3ccc4c(=O)n(C5CCN(C)CC5)cnc4c3)nc2c(C)n1 | 1000 to 10000 nM
Cc1cn2cc(-c3ccc4c(=O)n([C@@H]5CCN[C@H](C)C5)cnc4c3)cc(F)c2n1 | > 10000 nM
COc1cc(-c2ccc3c(=O)n(C4CCNCC4)ccc3c2)nn2cc(C)nc12 [Compound 514, hydrochloride] | < 100 nM
Cc1cc(-c2ccc3c(=O)n(N4CCN(C)CC4)cnc3c2)cc2cn(C)nc12 | > 10000 nM
Cc1cn2cc(-c3ccc4c(=O)n(C5CCNCC5)ncc4c3)c(C)cc2n1 | 1000 to 10000 nM
Cc1cc(-c2nc3ccc(N(C)C4CCN(C)CC4)cc3c(=O)[nH]2)cc2cn(C)nc12 | > 10000 nM

====

- Test system: MYB
- assay.notes: HiBiT protein abundance assay, MYB HiBiT K562 cell line
- Assay type: cell-based, human
- experimental.context: HiBiT K562 cell line, 24 hours, top dose 10 μM; read-out: Effect on protein abundance, MYB (IC50 category)
pIC50: −log10 of the molar value.

compound | pIC50
Cc1cn2nc(-c3cc(C)c4c(=O)n([C@H]5CCNC6(CC6)C5)ncc4c3)cc(C)c2n1 | 6.00 to 7.00
Cc1c(O)c(-c2ccc3c(=O)n([C@@H]4CCNC4)ccc3n2)cc2cn(C)nc12 | 6.00 to 7.00
Cc1cn2nc(-c3cc(F)c4c(=O)n(C5CCNC5)ccc4c3)cc(C)c2n1 (stereo in doubt) | 6.00 to 7.00
Cc1c(O)c(-c2ncc3c(=O)n([C@H]4CC[C@H](N)C4)ccc3n2)cc2cn(C)nc12 | 6.00 to 7.00
Cc1c(O)c(-c2ncc3c(=O)n(C4CCNC(C)(C)C4)ccc3n2)cc2cn(C)nc12 (stereo not shown) | > 7.00
Cc1cn2nc(-c3ccc4c(=O)n([C@H]5CCNC5)ccc4n3)cc(C)c2n1 | 6.00 to 7.00
Cc1c(O)c(-c2ncc3c(=O)n([C@@H]4CCN[C@H](C)C4)ccc3n2)cc2cn(C)nc12 | 6.00 to 7.00
Cc1cn2nc(-c3ccc4c(c3)CCN(C3CCNC3)C4=O)cc(C)c2n1 (stereo not shown) | 5.00 to 6.00
Cc1cc(-c2ccc3c(=O)n(C4CCNCC4)cnc3c2F)cc2cn(C)nc12 | 5.00 to 6.00
Cc1cn2cc(-c3ccc4c(=O)n(C5CCNCC5)cnc4c3)ncc2n1 | 6.00 to 7.00
Cc1cn2cc(-c3cc(F)c4c(=O)n(C5CCCNCC5)cnc4c3)cc(F)c2n1 (stereo not shown) | 6.00 to 7.00
Cn1cc2cc(-c3ccc4c(=O)n(C5CCNCC5)ncc4c3)cc(F)c2n1 | 5.00 to 6.00
Cc1cn2nc(-c3cc4ncn(C5CCNCC5)c(=O)c4cc3F)cc(C)c2n1 | 5.00 to 6.00
Cc1cn2cc(-c3cc(F)c4c(=O)n([C@H]5CCN[C@H](C)C5)cnc4c3)cc(F)c2n1 | > 7.00
CC(=O)c1cc(-c2cc(F)c3c(=O)n(C4CCNCC4)ccc3c2)cn2cc(C)nc12 [Compound 393, 2,2,2-trifluoroacetate] | > 7.00
Cc1cn2cc(-c3ncc4c(=O)n(C5CCNCC5)ccc4n3)cc(F)c2n1 | 6.00 to 7.00

====

# IC50 per record follows
- System: HTT mRNA
- assay.notes: RT-qPCR splicing assay, HTT canonical junction (CJ) and alternative junction (AJ) mRNA
- Assay type: cell-based, human
- experimental.context: Homo sapiens; canonical junction qPCR panel, Table 5; read-out: HTT (decrease in CJ mRNA levels, IC50)
measure.name: IC50

sample.smiles | assay.result
Cc1c(O)c(-c2ncc3c(=O)n([C@H]4C[C@H]5COC[C@@H](C4)N5)ccc3n2)cc2cn(C)nc12 | 1 to 10 µM
Cc1c(O)c(-c2ncc3c(=O)n([C@H]4CCN[C@H](C)C4)ccc3n2)cc2cn(C)nc12 | 0.1 to 1 µM
Cn1cc2cc(-c3ncc4c(=O)n(C56CCC(N)(CC5)C6)ccc4n3)c(O)c(F)c2n1 | 0.1 to 1 µM
Cc1cn2nc(-n3cnc4ccc(N5CCNCC5)cc4c3=O)cc(C)c2n1 | > 10 µM

====

- Tested on: HTT
- assay.notes: HiBiT protein abundance assay, HTT HiBiT K562 cell line
- Format: cell-based, human
- experimental.context: HiBiT lytic detection, modified K562 cells, 24 hours, top dose 10 μM; read-out: Effect on protein abundance, HTT (IC50)
pIC50: −log10 of the molar value.
pIC50 values for the compounds below.

compound | pIC50
Cc1cn2nc(-c3ccc4c(=O)n(C5CCN(CCF)C6(CC6)C5)ncc4n3)cc(C)c2n1 (stereo not shown) [Compound 1542] | 6.00 to 7.00
Cc1cn2nc(-c3ccc4c(=O)n(C5CCNCC5)ncc4n3)cc(C)c2n1 [Compound 1247] | > 7.00
CN1CCN(c2ccc3ncn(-c4ccc5nn(C)cc5c4)c(=O)c3c2)CC1 [Compound 2154] | < 5.00
Cn1cc2cc(-c3ncc4c(=O)n(C56CCC(N)(CC5)C6)ccc4n3)c(O)c(F)c2n1 [Compound 1468] | 6.00 to 7.00
Cn1cc2cc(-c3ncc4c(=O)n([C@@H]5CCNC5)ccc4n3)c(O)c(F)c2n1 [Compound 1466] | 6.00 to 7.00
Cc1c(O)c(-c2ncc3c(=O)n([C@H]4CCNC5(CC5)C4)ccc3n2)cc2cn(C)nc12 [Compound 1512] | > 7.00
Cc1cc(-c2ccc3ncn(C4CCN(C)CC4)c(=O)c3c2)cc2cn(C)nc12 [Compound 2170] | < 5.00
CCN1CCC(n2ncc3nc(-c4cc5cn(C)nc5cc4O)ccc3c2=O)CC1 [Compound 1310] | 5.00 to 6.00
CNC1CCN(c2ccc3cc(-c4cc(C)c5nc(C)cn5n4)ccn3c2=O)C1 (stereo not shown) [Compound 1158] | 6.00 to 7.00
Cn1cc2cc(-n3cnc4ccc(N5CCNCC5)cc4c3=O)cc(F)c2n1 [Compound 2196] | < 5.00
Cc1cn2nc(-c3ccc4c(=O)n(C5CCN(CC6CC6)C6(CC6)C5)ncc4n3)cc(C)c2n1 (stereo not shown) [Compound 1543] | > 7.00
Cc1cn2cc(-n3cnc4ccc(N(C)C5CCNCC5)cc4c3=O)cc(F)c2n1 [Compound 2200] | < 5.00
CN1CCC(n2ncc3nc(-c4cc5cn(C)nc5cc4O)ccc3c2=O)CC1 [Compound 1307] | 5.00 to 6.00
CCN1CC[C@H](n2ncc3nc(-c4cc(C)c5nc(C)cn5n4)ccc3c2=O)CC12CC2 [Compound 1531] | 6.00 to 7.00
Cn1cc2cc(-c3ncc4c(=O)n(C56CCC(N)(CC5)C6)ccc4n3)c(O)cc2n1 [Compound 1470] | 5.00 to 6.00
Cn1cc2cc(-n3cnc4ccc(C5=CCNCC5)cc4c3=O)ccc2n1 [Compound 2151] | < 5.00
Cc1cn2nc(-c3ccn4c(=O)c(C5CCNCC5)ccc4c3)cc(C)c2n1 [Compound 1181] | > 7.00
Cc1cn2nc(-c3ccn4c(=O)c(C5=CCNCC5)ncc4c3)cc(C)c2n1 [Compound 1182] | 6.00 to 7.00
Cc1c(O)c(-c2ncc3c(=O)n([C@@H]4C[C@H]5COC[C@@H](C4)N5)ccc3n2)cc2cn(C)nc12 [Compound 1471] | 6.00 to 7.00
